TEST_SUMMARY: Observed first order rate constant

[
  {
    "COMPOUND": "CC(=O)OCOC(=O)c1ccccc1OC(C)=O",
    "K1 / min⁻¹": 0.115
  },
  {
    "COMPOUND": "CC(=O)Oc1ccccc1C(=O)OCC(=O)N(C)CCO",
    "K1 / min⁻¹": 0.0699
  },
  {
    "COMPOUND": "CC(=O)Oc1ccccc1C(=O)OCC(=O)N(C(C)C)C(C)C",
    "K1 / min⁻¹": 0.0092
  },
  {
    "COMPOUND": "CC(=O)Oc1ccccc1C(=O)OC[S+](C)[O-] (stereo unspecified)",
    "K1 / min⁻¹": 0.0621
  },
  {
    "COMPOUND": "CC(=O)Oc1ccccc1C(=O)OCCN(C)C.Cl",
    "K1 / min⁻¹": 0.159
  },
  {
    "COMPOUND": "CC(=O)Oc1ccccc1C(=O)OCC(=O)N(C)C",
    "K1 / min⁻¹": 0.105
  }
]

###

# solubility values compiled below
TEST_SUMMARY: physchem
OBSERVED_PROPERTY: solubility (µg/mL)

[
  {
    "MOLECULE": "CC(=O)Oc1ccccc1C(=O)OCCN(C)C.Cl",
    "RELATION_OPERATOR": ">",
    "QUANTITATIVE_RESULT": 200000
  },
  {
    "MOLECULE": "CC(=O)OCOC(=O)c1ccccc1OC(C)=O",
    "RELATION_OPERATOR": "=",
    "QUANTITATIVE_RESULT": 2430
  },
  {
    "MOLECULE": "CCOC(=O)CN(C)C(=O)COC(=O)c1ccccc1OC(C)=O",
    "RELATION_OPERATOR": "=",
    "QUANTITATIVE_RESULT": 960
  },
  {
    "MOLECULE": "CC(=O)Nc1ccc(OC(=O)c2ccccc2OC(C)=O)cc1 [BENORILATE]",
    "RELATION_OPERATOR": "=",
    "QUANTITATIVE_RESULT": 20
  }
]

###

TEST_SUMMARY: in vitro
CONDITION_DESCRIPTION: human, 10% human plasma, pH 7.4
Description: Michaelis-Menten constant(Km) for hydrolysis in 10% human plasma(pH 7.4) at 37 degrees celsius
The following molecules are listed with their measured Km values.
OBSERVED_PROPERTY: Km

[
  {
    "LINE_NOTATION": "CC(=O)Oc1ccccc1C(=O)OCC(=O)N(C)C",
    "RESULT": "196 µM"
  },
  {
    "LINE_NOTATION": "CC(=O)Oc1ccccc1C(=O)OCC(=O)N(C)CC(N)=O",
    "RESULT": "380 µM"
  },
  {
    "LINE_NOTATION": "CC(=O)Oc1ccccc1C(=O)OCCN(C)C.Cl",
    "RESULT": "49 µM"
  }
]

###

TEST_SUMMARY: in vitro
CONDITION_DESCRIPTION: human, 10% human plasma
Criterion: half-life strictly less than 3 min. Met: 1.0. Not met: 0.0.

[
  {
    "COMPOUND": "CC(=O)Oc1ccccc1C(=O)OCCN(C)C(C)=O",
    "CLASS_LABEL": 0.0
  },
  {
    "COMPOUND": "CC(=O)OCOC(=O)c1ccccc1OC(C)=O",
    "CLASS_LABEL": 1.0
  },
  {
    "COMPOUND": "CC(=O)Oc1ccccc1C(=O)OCC(=O)N(C)CCO",
    "CLASS_LABEL": 0.0
  },
  {
    "COMPOUND": "CCCC(=O)OCOC(=O)c1ccccc1OC(C)=O",
    "CLASS_LABEL": 1.0
  },
  {
    "COMPOUND": "CSCOC(=O)c1ccccc1OC(C)=O",
    "CLASS_LABEL": 1.0
  },
  {
    "COMPOUND": "CC(=O)Oc1ccccc1C(=O)OCC(=O)NCC(N)=O",
    "CLASS_LABEL": 0.0
  },
  {
    "COMPOUND": "CC(=O)Oc1ccccc1C(=O)Oc1ccccc1C(=O)O [DIPLOSALSALATE]",
    "CLASS_LABEL": 0.0
  },
  {
    "COMPOUND": "CCOC(=O)CNC(=O)COC(=O)c1ccccc1OC(C)=O",
    "CLASS_LABEL": 0.0
  },
  {
    "COMPOUND": "CC(=O)Oc1ccccc1C(=O)OCC(=O)N(C1CCCCC1)C1CCCCC1",
    "CLASS_LABEL": 0.0
  },
  {
    "COMPOUND": "CCOC(=O)COC(=O)c1ccccc1OC(C)=O",
    "CLASS_LABEL": 1.0
  },
  {
    "COMPOUND": "CC(=O)Oc1ccccc1C(=O)Oc1ccccc1",
    "CLASS_LABEL": 1.0
  },
  {
    "COMPOUND": "CCNC(=O)COC(=O)c1ccccc1OC(C)=O",
    "CLASS_LABEL": 1.0
  }
]

###

TEST_SUMMARY: Observed pseudo-first order rate constant
Group membership follows K obs per the scheme LOW (below 0.2 min⁻¹), MEDIUM (0.2 min⁻¹ to below 0.4 min⁻¹), HIGH (0.4 min⁻¹ or more)

[
  {
    "COMPOUND": "COC(=O)c1ccccc1OC(C)=O",
    "CLASS_LABEL": "MEDIUM"
  },
  {
    "COMPOUND": "CC(=O)Oc1ccccc1C(=O)OCC(=O)N(C(C)C)C(C)C",
    "CLASS_LABEL": "LOW"
  },
  {
    "COMPOUND": "CC(=O)Oc1ccccc1C(=O)Oc1ccccc1",
    "CLASS_LABEL": "HIGH"
  },
  {
    "COMPOUND": "CCOC(=O)COC(=O)c1ccccc1OC(C)=O",
    "CLASS_LABEL": "MEDIUM"
  },
  {
    "COMPOUND": "CCNC(=O)COC(=O)c1ccccc1OC(C)=O",
    "CLASS_LABEL": "MEDIUM"
  },
  {
    "COMPOUND": "CC(=O)Nc1ccc(OC(=O)c2ccccc2OC(C)=O)cc1 [BENORILATE]",
    "CLASS_LABEL": "HIGH"
  },
  {
    "COMPOUND": "CCOC(=O)CNC(=O)COC(=O)c1ccccc1OC(C)=O",
    "CLASS_LABEL": "MEDIUM"
  },
  {
    "COMPOUND": "CCCC(=O)OCOC(=O)c1ccccc1OC(C)=O",
    "CLASS_LABEL": "HIGH"
  },
  {
    "COMPOUND": "CC(=O)Oc1ccccc1C(=O)OCC(=O)N(C)CCO",
    "CLASS_LABEL": "LOW"
  },
  {
    "COMPOUND": "CCOC(=O)CN(C)C(=O)COC(=O)c1ccccc1OC(C)=O",
    "CLASS_LABEL": "MEDIUM"
  }
]

###

TEST_SUMMARY: in vitro
CONDITION_DESCRIPTION: human, 10% human plasma
Tag: true (1) if measured half-life is not below 3 min, false (0) if it is.

[
  {
    "COMPOUND": "CCOC(=O)CN(C)C(=O)COC(=O)c1ccccc1OC(C)=O",
    "CLASS_LABEL": "false (0)"
  },
  {
    "COMPOUND": "CC(=O)Oc1ccccc1C(=O)OC[S+](C)[O-] (stereo not drawn)",
    "CLASS_LABEL": "true (1)"
  },
  {
    "COMPOUND": "CC(=O)Oc1ccccc1C(=O)OCC(=O)N(C)CC(N)=O",
    "CLASS_LABEL": "true (1)"
  },
  {
    "COMPOUND": "CC(=O)Oc1ccccc1C(=O)OCC(=O)N(C(C)C)C(C)C",
    "CLASS_LABEL": "true (1)"
  },
  {
    "COMPOUND": "COC(=O)c1ccccc1OC(C)=O",
    "CLASS_LABEL": "true (1)"
  },
  {
    "COMPOUND": "CC(=O)Oc1ccccc1C(=O)OCC(=O)N(C)C",
    "CLASS_LABEL": "true (1)"
  },
  {
    "COMPOUND": "CC(=O)Nc1ccc(OC(=O)c2ccccc2OC(C)=O)cc1 [BENORILATE]",
    "CLASS_LABEL": "false (0)"
  },
  {
    "COMPOUND": "CC(=O)Oc1ccccc1C(=O)OCCN(C)C.Cl",
    "CLASS_LABEL": "false (0)"
  }
]

###

Here the recorded solubility is given for each entry.
TEST_SUMMARY: physchem

[
  {
    "MOLECULE": "CCNC(=O)COC(=O)c1ccccc1OC(C)=O",
    "solubility, µg/mL": 5520
  },
  {
    "MOLECULE": "CC(=O)Oc1ccccc1C(=O)OC[S+](C)[O-] (configuration not stated)",
    "solubility, µg/mL": 4230
  },
  {
    "MOLECULE": "CCOC(=O)CNC(=O)COC(=O)c1ccccc1OC(C)=O",
    "solubility, µg/mL": 4320
  },
  {
    "MOLECULE": "CCCC(=O)OCOC(=O)c1ccccc1OC(C)=O",
    "solubility, µg/mL": 350
  },
  {
    "MOLECULE": "COC(=O)c1ccccc1OC(C)=O",
    "solubility, µg/mL": 2810
  },
  {
    "MOLECULE": "CC(=O)Oc1ccccc1C(=O)Oc1ccccc1",
    "solubility, µg/mL": 20
  },
  {
    "MOLECULE": "CSCOC(=O)c1ccccc1OC(C)=O",
    "solubility, µg/mL": 550
  }
]
